Test system: Micrococcus luteus
RUN DESCRIPTION: In vitro antimicrobial activity, microplate dilution procedure (MIC)
Type: cell-based
CONDITION PARAMETERS: read-out: ML MIC

{"COMPOUND": "Cc1cc(-c2c(F)cc3c(=O)c(C(=O)O)cn(C4CC4)c3c2F)cc(C)n1", "TEST TARGET": "Micrococcus luteus", "MIC (µg/mL)": 0.25}
{"COMPOUND": "Cc1cc(-c2cc3c(cc2F)c(=O)c(C(=O)O)cn3C2CC2)cc(C)n1", "TEST TARGET": "Micrococcus luteus", "MIC (µg/mL)": 0.5}
{"COMPOUND": "CCn1cc(C(=O)O)c(=O)c2ccc(-c3cc(C)nc(C)c3)cc21 [P, reference compound]", "TEST TARGET": "Micrococcus luteus", "MIC (µg/mL)": 8}
{"COMPOUND": "Cc1cc(-c2c(F)c(F)c3c(=O)c(C(=O)O)cn(C4CC4)c3c2F)cc(C)n1", "TEST TARGET": "Micrococcus luteus", "MIC (µg/mL)": 0.5}
{"COMPOUND": "CCn1cc(C(=O)O)c(=O)c2cc(F)c(-c3cc(C)nc(C)c3)cc21 [R, reference compound]", "TEST TARGET": "Micrococcus luteus", "MIC (µg/mL)": 0.5}
{"COMPOUND": "O=C(O)c1cn(C2CC2)c2cc(N3CCNCC3)c(F)cc2c1=O [Q, reference compound]", "TEST TARGET": "Micrococcus luteus", "MIC (µg/mL)": 2}

* * *

Each entry below carries its reported Staph. aureus (PD₅₀) sc.
Tested on: Staph. aureus
RUN DESCRIPTION: In vivo antibacterial activity in infected mice (protective dose)
CONDITION PARAMETERS: Mouse; subcutaneous, one-half hour postinfection; deaths recorded for seven days

{"COMPOUND": "CCn1cc(C(=O)O)c(=O)c2cc(F)c(-c3cc(C)nc(C)c3)cc21 [R, reference compound]", "Staph. aureus (PD₅₀) sc": "0.71 mg/kg"}
{"COMPOUND": "Cc1cc(-c2cc3c(cc2F)c(=O)c(C(=O)O)cn3C2CC2)cc(C)n1 [Compound A]", "Staph. aureus (PD₅₀) sc": "0.08 mg/kg"}
{"COMPOUND": "Cc1cc(-c2c(F)c(F)c3c(=O)c(C(=O)O)cn(C4CC4)c3c2F)cc(C)n1 [B]", "Staph. aureus (PD₅₀) sc": "0.08 mg/kg"}
{"COMPOUND": "Cc1cc(-c2c(F)cc3c(=O)c(C(=O)O)cn(C4CC4)c3c2F)cc(C)n1 [C]", "Staph. aureus (PD₅₀) sc": "0.06 mg/kg"}
{"COMPOUND": "CCn1cc(C(=O)O)c(=O)c2ccc(-c3cc(C)nc(C)c3)cc21 [P, reference compound]", "Staph. aureus (PD₅₀) sc": "2.37 mg/kg"}

* * *

Tested on: Streptococcus faecalis
RUN DESCRIPTION: In vitro antimicrobial activity, microplate dilution procedure (MIC)
Assay type: cell-based
CONDITION PARAMETERS: Enterococcus faecalis, Streptococcus faecalis, read-out: SF MIC

{"MOLECULE": "CCn1cc(C(=O)O)c(=O)c2cc(F)c(-c3cc(C)nc(C)c3)cc21 [R, reference compound]", "MIC / µg/mL": 0.25}
{"MOLECULE": "CCn1cc(C(=O)O)c(=O)c2ccc(-c3cc(C)nc(C)c3)cc21 [P, reference compound]", "MIC / µg/mL": 1}
{"MOLECULE": "O=C(O)c1cn(C2CC2)c2cc(N3CCNCC3)c(F)cc2c1=O [Q, reference compound]", "MIC / µg/mL": 0.5}
{"MOLECULE": "Cc1cc(-c2c(F)c(F)c3c(=O)c(C(=O)O)cn(C4CC4)c3c2F)cc(C)n1", "MIC / µg/mL": 0.06}
{"MOLECULE": "Cc1cc(-c2c(F)cc3c(=O)c(C(=O)O)cn(C4CC4)c3c2F)cc(C)n1", "MIC / µg/mL": 0.06}
{"MOLECULE": "Cc1cc(-c2cc3c(cc2F)c(=O)c(C(=O)O)cn3C2CC2)cc(C)n1", "MIC / µg/mL": 0.06}
